- experimentDescription: Drug uptake in […] mouse brain at 3 mg/kg, iv measured after 0.8 hrs by LC-MS/MS analysis
- Assay type: ADME, organism-based
- recordedConditions: read-out: Drug uptake
concentration at 0.8 h listing for selected molecules.
Express the result in ng/g but write the number alone.

The following molecules have reported results that may help.
1. O=C(NCC1c2ccccc2CCN1S(=O)(=O)c1ccc(Br)cc1OC(F)(F)F)C1CCCCC1 (stereo not drawn) = 1440
2. Cc1ccc(C(=O)NCC2c3ccccc3CCN2C)cc1C (stereo not drawn) = 7420

Switching to the query record.
Which concentration at 0.8 h value belongs to CN1CCc2ccccc2C1CNC(=O)c1ccc(Cl)c(Cl)c1 (stereo not drawn) ? 11700
